tested on: Plasmodium falciparum Sir2 (PF13_0152, Sir2A); assay: pfSir2 binders on small-molecule microarrays, primary screen, biochemical, small-molecule microarray, 635 nm fluorescence (AID 1098); conditions: small-molecule microarray binding, fluorescence 635 nm; higher = more signal;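 also: score merges spot fluorescence intensity with its signal-to-noise ratio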
composite z-score: recorded values
Form: value (number only, do not type unit).

// known answers, use as guide
CC(C)(C)OC(=O)CC[C@]1(C(=O)NCc2ccccc2)N=C(c2ccc(OCCCO)cc2)O[C@H]1c1ccccc1CN=[N+]=[N-] : 1.45
COCCOC(=O)N1C(=O)[C@@]2(c3cc(C#Cc4ccc(OC)cc4)ccc31)[C@H](c1ccccc1OCCO)N1[C@H](c3ccccc3)[C@H](c3ccccc3)OC(=O)[C@H]1[C@@H]2C(=O)N1CCCCCCC1 : 1.2

Input: Query composite z-score for CN(C)CCCNC(=O)[C@@]1(C)c2ccccc2C(=O)N(Cc2ccccc2)[C@H]1c1ccc(CO)cc1
Output: 1.71

---

experiment: small-molecule binders of probe aNOTCH2, primary screen, biochemical, small-molecule microarray, 635/667 nm fluorescence (AID 1121); conditions: higher = more signal;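 also: score merges feature fluorescence read at 667 nm with its signal to noise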
recorded.endpoint: composite z-score
Form: value (number only, do not type unit).

// known answers, use as guide
COCCOC(=O)N1C(=O)[C@@]2(c3cc(C#CCCO)ccc31)[C@H](c1ccccc1OCCO)N1[C@H](c3ccccc3)[C@H](c3ccccc3)OC(=O)[C@H]1[C@@H]2C(=O)Nc1nc2ccccc2s1 : -0.0352
COc1ccc(CCN2C(=O)[C@@]3(Cc4ccccc42)c2ccccc2C(=O)N(Cc2ccccc2OC)[C@H]3c2ccc(CO)cc2)cc1 : -0.0785

Let's switch to this compound now.
Input: Query composite z-score for O=C1NC(=O)C2C1C=CC(C(O)CCc1ccccc1)N2Nc1ccc(Cl)cc1Cl (stereo not drawn)
Output: 0.345

---

test: small-molecule microarray binders of probe aDKK1, primary screen, biochemical, biotinylated probe, 635/667 nm fluorescence (AID 1099); settings: higher = more signal;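 also: score merges 667nm spot fluorescence with signal to noise across triplicate slides; reference of the scale not given here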
Would you mind labelling by composite z-score? At or over -0.06 is 1, under is -1.

CC[C@H]1C2=C3C(CC[C@H]4C(OCc5ccc(F)cc5C(F)(F)F)OC[C@](C)([C@@H]34)N(C(=O)OC(C)(C)C)C2)C(COC)C1COC (some centres not stated) : 1
CN(C)CCCNC(=O)[C@@H]1c2ccccc2C(=O)N(Cc2ccccc2Cl)[C@H]1c1ccc(CO)cc1 : 1
C=CCC(OC(C)=O)[C@@H]1[C@@H](N(Cc2cc3ccccc3o2)C(=O)Cc2ccc(F)cc2)c2cc(OCCCO)ccc2N1C(=O)c1ccc2ccccc2c1 (some centres not stated) : 1
COCCOC(=O)N1C(=O)[C@@]2(c3cc(C#CC4=CCCCC4)ccc31)[C@H](c1ccc(OCCO)cc1)N1[C@H](c3ccccc3)[C@H](c3ccccc3)OC(=O)[C@H]1[C@@H]2C(=O)N1CCN(c2ncccn2)CC1 : 1
Cc1cc(C)c(C(O)C2C=CC3C(=O)N(c4ccccc4)C(=O)C3N2Nc2ccc(C(C)C)cc2)c(C)c1 (configuration not stated) : 1

Input: Identify whether the reported composite z-score of the following compound is -0.06 or greater: CCOC(=O)C1=CC[C@@H](c2ccccc2C(F)(F)F)N(S(=O)(=O)c2ccc(C)cc2)[C@H]1c1ccc(C#N)cc1
Output: 1

Input: Identify whether the reported composite z-score of the following compound is -0.06 or greater: COCCCNC(=O)[C@]1(CCS(=O)(=O)c2ccccc2)N=C(c2ccc(OCCCO)cc2)O[C@@H]1c1ccccc1N=[N+]=[N-]
Output: 1

Input: Identify whether the reported composite z-score of the following compound is -0.06 or greater: COc1ccc(NC(=O)O[C@H]2[C@H](OC(=O)Nc3ccccc3)[C@@H](OC(=O)Nc3ccccc3)[C@@H](OC)O[C@@H]2CO)cc1
Output: 1

Numbers sourced from PubChem BioAssay.
